- TARGET_OR_SYSTEM: TSSK2 (h) (Homo sapiens)
- Sequence (Q96PF2 1-358): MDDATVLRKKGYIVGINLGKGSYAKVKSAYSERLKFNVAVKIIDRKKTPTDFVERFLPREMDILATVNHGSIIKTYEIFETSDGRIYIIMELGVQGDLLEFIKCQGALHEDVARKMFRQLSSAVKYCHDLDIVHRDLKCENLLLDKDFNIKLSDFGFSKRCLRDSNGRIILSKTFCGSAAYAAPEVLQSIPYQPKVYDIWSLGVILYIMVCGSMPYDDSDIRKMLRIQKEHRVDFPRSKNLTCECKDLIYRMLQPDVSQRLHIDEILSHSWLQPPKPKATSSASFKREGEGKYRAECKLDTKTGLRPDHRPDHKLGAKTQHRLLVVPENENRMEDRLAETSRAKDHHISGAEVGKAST
- TEST: Kinase Profiling Assay
- Format: biochemical
- MEASUREMENT_SETUP: 100 μM
- Method: Every kinase activity measurement was conducted in duplicate. Specifically, in these assays, a positively charged substrate is phosphorylated with a radiolabeled phosphate group from an ATP if the kinase is not inhibited by an inhibitor peptide. The positively charged substrate then is attracted to a negatively charged filter membrane, quantified with a scintillation counter, and compared to a 100% activity control. […]
READOUT_LABEL: % activity (%)
Numeric only. Scale: %

QUERY: Data request, read-out % activity, for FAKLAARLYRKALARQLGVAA [MMI-0300]
RESULT: 98

QUERY: I have this sequence here, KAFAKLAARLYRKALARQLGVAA [MMI-0400] , and I need its recorded % activity.
RESULT: 94

QUERY: Find the recorded % activity belonging to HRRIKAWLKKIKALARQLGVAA (Mammalian) [MMI-0500] and report it.
RESULT: 92

QUERY: Entry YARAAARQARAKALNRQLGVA (Mammalian) [MMI-0200] : reported % activity = ?
RESULT: 91

* * *

Assignment: determine reported % activity for the given sequences.
- TARGET_OR_SYSTEM: mTOR (h) (Homo sapiens, UniProt P42345)
- Construct: purchased Millipore
- TEST: Kinase Profiling Assay
- Type: biochemical
- MEASUREMENT_SETUP: 100 μM
- Protocol: Every kinase activity measurement was conducted in duplicate. Specifically, in these assays, a positively charged substrate is phosphorylated with a radiolabeled phosphate group from an ATP if the kinase is not inhibited by an inhibitor peptide. The positively charged substrate then is attracted to a negatively charged filter membrane, quantified with a scintillation counter, and compared to a 100% activity control. […]
Answer by giving the amount and then stating its unit.

QUERY: Requested read-out % activity, target or system mTOR (h) (Homo sapiens, UniProt P42345), entry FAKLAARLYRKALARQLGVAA [MMI-0300]
RESULT: 91%

QUERY: Can you look up % activity on mTOR (h) (Homo sapiens, UniProt P42345) for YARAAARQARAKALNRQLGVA (Mammalian) [MMI-0200] ?
RESULT: 110%

QUERY: I'm curious: which % activity was measured for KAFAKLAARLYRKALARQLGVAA [MMI-0400] tested on mTOR (h) (Homo sapiens, UniProt P42345)?
RESULT: 93%

QUERY: Lab request: please report % activity under test system mTOR (h) (Homo sapiens, UniProt P42345) for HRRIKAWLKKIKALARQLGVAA (Mammalian) [MMI-0500]
RESULT: 135%

* * *

- TARGET_OR_SYSTEM: Haspin (h) (Homo sapiens, UniProt Q8TF76)
- Construct: purchased Millipore
- Sequence (Q8TF76 1-798): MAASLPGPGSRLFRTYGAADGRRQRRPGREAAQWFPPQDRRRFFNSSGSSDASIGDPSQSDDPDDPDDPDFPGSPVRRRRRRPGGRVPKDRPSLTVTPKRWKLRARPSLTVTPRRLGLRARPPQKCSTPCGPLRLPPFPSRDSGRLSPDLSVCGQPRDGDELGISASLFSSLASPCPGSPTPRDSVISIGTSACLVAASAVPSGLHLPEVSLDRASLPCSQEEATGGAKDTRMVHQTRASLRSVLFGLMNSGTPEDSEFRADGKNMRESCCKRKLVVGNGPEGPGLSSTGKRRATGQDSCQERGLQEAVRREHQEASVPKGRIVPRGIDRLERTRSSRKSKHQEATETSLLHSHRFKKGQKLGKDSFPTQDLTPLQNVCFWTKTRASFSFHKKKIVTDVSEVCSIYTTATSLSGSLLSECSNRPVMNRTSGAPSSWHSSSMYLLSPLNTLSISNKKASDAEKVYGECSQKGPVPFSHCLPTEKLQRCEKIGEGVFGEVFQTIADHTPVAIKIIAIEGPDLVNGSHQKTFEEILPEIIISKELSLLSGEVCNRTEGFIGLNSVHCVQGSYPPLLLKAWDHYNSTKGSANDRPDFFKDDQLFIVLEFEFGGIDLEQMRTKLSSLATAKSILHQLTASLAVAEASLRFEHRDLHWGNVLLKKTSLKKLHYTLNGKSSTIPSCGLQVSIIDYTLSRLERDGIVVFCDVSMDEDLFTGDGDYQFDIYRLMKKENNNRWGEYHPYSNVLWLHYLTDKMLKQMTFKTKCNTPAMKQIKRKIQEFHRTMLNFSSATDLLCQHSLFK
- TEST: Kinase Profiling Assay
- Type: biochemical
- MEASUREMENT_SETUP: 100 μM
Assignment: determine reported % activity for the given sequences.
Write the number in % without appending the unit.

QUERY: I would be grateful if you could share the reported % activity for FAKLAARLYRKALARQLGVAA [MMI-0300] .
RESULT: 48

QUERY: # get_value(readout='% activity', item= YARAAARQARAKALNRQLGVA (Mammalian) [MMI-0200] )
RESULT: 71

QUERY: For the sequence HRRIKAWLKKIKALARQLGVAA (Mammalian) [MMI-0500] , what % activity is on record?
RESULT: 25

QUERY: Quick check: % activity of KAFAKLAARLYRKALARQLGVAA [MMI-0400] ?
RESULT: 36

* * *

- TARGET_OR_SYSTEM: MKK6 (h) (Homo sapiens, UniProt P52564)
- Construct: purchased Millipore
- Sequence (P52564 1-334): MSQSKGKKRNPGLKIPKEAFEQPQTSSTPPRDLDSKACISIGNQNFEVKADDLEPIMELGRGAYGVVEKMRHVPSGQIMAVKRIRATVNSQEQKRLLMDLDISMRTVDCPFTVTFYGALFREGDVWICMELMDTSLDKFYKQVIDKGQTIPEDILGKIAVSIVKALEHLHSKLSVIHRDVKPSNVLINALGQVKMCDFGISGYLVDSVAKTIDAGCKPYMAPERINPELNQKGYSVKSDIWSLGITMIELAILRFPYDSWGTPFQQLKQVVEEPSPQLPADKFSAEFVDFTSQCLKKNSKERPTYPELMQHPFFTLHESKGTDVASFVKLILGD
- TEST: Kinase Profiling Assay
- Format: biochemical
- MEASUREMENT_SETUP: 100 μM
READOUT_LABEL: % activity (%)
Give just the numeric value; % need not be written.

QUERY: % activity of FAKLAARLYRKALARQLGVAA [MMI-0300] on MKK6 (h) (Homo sapiens, UniProt P52564)?
RESULT: 48

QUERY: Provide the documented % activity with MKK6 (h) (Homo sapiens, UniProt P52564) as the system for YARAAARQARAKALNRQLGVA (Mammalian) [MMI-0200]
RESULT: 98

QUERY: Recorded % activity for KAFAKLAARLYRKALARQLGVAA [MMI-0400] with MKK6 (h) (Homo sapiens, UniProt P52564), please?
RESULT: 44

QUERY: Value wanted: % activity (MKK6 (h) (Homo sapiens, UniProt P52564)) of entry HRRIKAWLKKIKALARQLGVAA (Mammalian) [MMI-0500]
RESULT: 18

* * *

- TARGET_OR_SYSTEM: Txk (h) (Homo sapiens, UniProt P42681)
- Sequence (P42681 1-527): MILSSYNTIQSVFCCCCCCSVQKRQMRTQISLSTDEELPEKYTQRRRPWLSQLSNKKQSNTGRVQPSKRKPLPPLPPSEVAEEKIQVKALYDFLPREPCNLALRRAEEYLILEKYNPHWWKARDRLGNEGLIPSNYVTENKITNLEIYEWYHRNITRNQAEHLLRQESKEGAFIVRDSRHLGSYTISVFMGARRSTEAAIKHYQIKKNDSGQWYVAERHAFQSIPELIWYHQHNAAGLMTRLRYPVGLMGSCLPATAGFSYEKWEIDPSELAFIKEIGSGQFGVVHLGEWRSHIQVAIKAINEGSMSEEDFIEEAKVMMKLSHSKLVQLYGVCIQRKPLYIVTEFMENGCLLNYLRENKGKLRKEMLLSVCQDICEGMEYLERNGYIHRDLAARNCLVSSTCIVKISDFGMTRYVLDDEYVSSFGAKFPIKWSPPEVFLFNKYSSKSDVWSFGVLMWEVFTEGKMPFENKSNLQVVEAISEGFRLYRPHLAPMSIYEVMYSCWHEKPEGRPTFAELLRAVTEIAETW
- TEST: Kinase Profiling Assay
- Format: biochemical
- MEASUREMENT_SETUP: 100 μM
What % activity was measured for each of the following?
Field format: number, assumed %, no unit text.

QUERY: Endpoint output: % activity of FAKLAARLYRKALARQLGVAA [MMI-0300] . Value?
RESULT: 48

QUERY: I am curious: what % activity value has been reported for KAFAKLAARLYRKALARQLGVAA [MMI-0400] ?
RESULT: 37

QUERY: Give its % activity value. Item: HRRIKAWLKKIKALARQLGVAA (Mammalian) [MMI-0500]
RESULT: 10

QUERY: Param item = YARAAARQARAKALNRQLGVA (Mammalian) [MMI-0200] ; retrieve measured % activity.
RESULT: 98

The reported measurements were obtained from patent US10500249B2.
